- Test system: SNB-19 CNS
- assayExplanation: NCI-60 one-dose screen, 48 h (100 = growth as untreated, 0 = no growth, -100 = all killed)
- testConditions: 10 µM unless noted
About 83,000 compounds went through this panel and 20% of them were active in at least one assay; those are over-represented in the sample as a whole.
growth listing for selected compounds.

[
  {
    "compound": "O=C(O)CCCCCNC(=O)OCc1ccccc1",
    "unitOfMeasure": "%",
    "growth": 105
  },
  {
    "compound": "CCC(C)c1c(N)n(S(=O)(=O)c2ccc(C)cc2)oc1=O (configuration not stated)",
    "unitOfMeasure": "%",
    "growth": 106
  },
  {
    "compound": "C=C1C(=O)C2CCC1C2 (configuration not stated)",
    "unitOfMeasure": "%",
    "growth": 107
  },
  {
    "compound": "COc1cc(OC)c2cc(C(=O)c3ccc(C#N)cc3)c(=O)oc2c1",
    "unitOfMeasure": "%",
    "growth": 88.5
  },
  {
    "compound": "COc1ccc(C(=O)/C(=N/Nc2ccccc2)c2ccc(OC)cc2)cc1",
    "unitOfMeasure": "%",
    "growth": 100
  },
  {
    "compound": "CCOC(=O)CSCCC#N",
    "unitOfMeasure": "%",
    "growth": 104
  },
  {
    "compound": "Ic1cccs1",
    "unitOfMeasure": "%",
    "growth": 99.6
  }
]
